Attribution: the supplement of paper PMC12067926

- System: Rhizobium 1 (Rhizobium herbae)
- assay: relative growth (AUC of 72 h growth curve relative to DMSO control, dAUC) (ratio); higher = more growth (less inhibition), active = hit call of the paper;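 active = growth AUC significantly below the DMSO wells by Dunnett test; inactive = the rest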
- conditionSummary: 20 µM
Can you answer with just one of these options? 1 = active, -1 = inactive

# example entries with known answers
compound | qualitativeLabel
CNC(=O)Oc1cccc2ccccc12 | -1
CC(C)N(C(=O)COc1nnc(C(F)(F)F)s1)c1ccc(F)cc1 | -1
COc1ccc(-c2ccccc2)cc1NNC(=O)OC(C)C | -1

Turning to the following compound.
Req: Recorded test outcome, item `CCOP(=S)(OCC)Oc1cc(C)nc(C(C)C)n1`
Resp: -1
